These entries and their values trace back to ChEMBL document CHEMBL4020850.

Molecular target: Estrogen receptor (Homo sapiens)
Sequence (P03372 whole entry): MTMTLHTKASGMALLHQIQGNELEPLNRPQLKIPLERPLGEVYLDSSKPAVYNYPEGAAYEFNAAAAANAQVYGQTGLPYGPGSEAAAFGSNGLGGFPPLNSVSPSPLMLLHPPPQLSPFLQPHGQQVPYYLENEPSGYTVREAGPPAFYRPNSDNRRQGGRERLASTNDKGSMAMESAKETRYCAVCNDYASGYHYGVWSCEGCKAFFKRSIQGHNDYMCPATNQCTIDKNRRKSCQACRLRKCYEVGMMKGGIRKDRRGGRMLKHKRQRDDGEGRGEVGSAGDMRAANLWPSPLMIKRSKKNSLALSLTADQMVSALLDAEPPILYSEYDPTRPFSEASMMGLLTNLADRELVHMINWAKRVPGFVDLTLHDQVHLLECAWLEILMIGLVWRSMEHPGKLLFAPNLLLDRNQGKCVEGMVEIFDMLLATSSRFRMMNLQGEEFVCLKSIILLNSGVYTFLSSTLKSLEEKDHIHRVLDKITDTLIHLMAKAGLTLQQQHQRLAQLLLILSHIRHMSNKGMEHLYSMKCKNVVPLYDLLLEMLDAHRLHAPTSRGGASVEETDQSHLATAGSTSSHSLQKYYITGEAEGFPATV
Assay: Induction of selective estrogen receptor alpha degradation in human MCF7 cells after 18 to 24 hrs by in-cell Western analysis
Assay type: cell-based
result type: IC50 (nM)
Quick reminder: number only, in nM, skip the unit.

The recorded IC50 for COCc1ccccc1-c1sc2cc(O)ccc2c1Oc1ccc(/C=C/C(=O)O)cc1 is 3

---

Test: Equilibrium solubility in pH 6.8 buffer at 1 mM after 16 hrs by HPLC based shake flask method
Assay type: physicochemical
result type: solubility thermodynamic at 16 h, 1000 µM (µM)
Quick reminder: number only, in µM, skip the unit.

The recorded solubility thermodynamic at 16 h, 1000 µM for Cn1cnc(/C=C/c2ccc(Oc3c(-c4ccc(O)cc4)sc4cc(O)ccc34)cc2)c1 is 9

The recorded solubility thermodynamic at 16 h, 1000 µM for O=C(O)/C=C/c1ccc(Oc2c(-c3ccc(O)cc3)sc3cc(O)ccc23)cc1 is 340

The recorded solubility thermodynamic at 16 h, 1000 µM for Oc1ccc(-c2sc3cc(O)ccc3c2Oc2ccc(/C=C/c3nnn[nH]3)cc2)cc1 is 190

The recorded solubility thermodynamic at 16 h, 1000 µM for O=C(/C=C/c1ccc(Oc2c(-c3ccc(O)cc3)sc3cc(O)ccc23)cc1)NCCO is 11
